Origin of values: ChEMBL document CHEMBL4811252

# target_under_test: Histone deacetylase 3 (Homo sapiens, UniProt O15379)
# Sequence (O15379 whole entry): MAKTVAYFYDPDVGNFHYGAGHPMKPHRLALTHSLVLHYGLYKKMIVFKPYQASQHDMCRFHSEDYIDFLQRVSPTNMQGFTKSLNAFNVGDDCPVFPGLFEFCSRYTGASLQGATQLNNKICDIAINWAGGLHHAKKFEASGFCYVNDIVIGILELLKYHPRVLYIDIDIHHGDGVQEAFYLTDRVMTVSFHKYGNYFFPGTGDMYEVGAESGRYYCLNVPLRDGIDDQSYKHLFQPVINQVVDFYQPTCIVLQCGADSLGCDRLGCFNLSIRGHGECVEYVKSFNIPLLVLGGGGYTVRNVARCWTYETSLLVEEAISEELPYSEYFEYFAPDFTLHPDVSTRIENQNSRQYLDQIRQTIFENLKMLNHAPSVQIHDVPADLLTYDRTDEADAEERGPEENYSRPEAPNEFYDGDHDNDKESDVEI
readout_kind: pIC50
Just so you know, pIC50 here is -log10 of the concentration in molar units; reply with that number alone.

Report pIC50 from Histone deacetylase 3 (Homo sapiens, UniProt O15379) testing of Cc1ccc(-c2nc(CNc3ccc(C(=O)NO)cc3)n(-c3ccccc3)n2)s1
6.63

---

Kindly supply the reported inhibition values for the records listed here.
# target_under_test: Protein deacetylase HDAC6 (Homo sapiens) (UniProt Q9UBN7)
# Sequence (Q9UBN7 whole entry): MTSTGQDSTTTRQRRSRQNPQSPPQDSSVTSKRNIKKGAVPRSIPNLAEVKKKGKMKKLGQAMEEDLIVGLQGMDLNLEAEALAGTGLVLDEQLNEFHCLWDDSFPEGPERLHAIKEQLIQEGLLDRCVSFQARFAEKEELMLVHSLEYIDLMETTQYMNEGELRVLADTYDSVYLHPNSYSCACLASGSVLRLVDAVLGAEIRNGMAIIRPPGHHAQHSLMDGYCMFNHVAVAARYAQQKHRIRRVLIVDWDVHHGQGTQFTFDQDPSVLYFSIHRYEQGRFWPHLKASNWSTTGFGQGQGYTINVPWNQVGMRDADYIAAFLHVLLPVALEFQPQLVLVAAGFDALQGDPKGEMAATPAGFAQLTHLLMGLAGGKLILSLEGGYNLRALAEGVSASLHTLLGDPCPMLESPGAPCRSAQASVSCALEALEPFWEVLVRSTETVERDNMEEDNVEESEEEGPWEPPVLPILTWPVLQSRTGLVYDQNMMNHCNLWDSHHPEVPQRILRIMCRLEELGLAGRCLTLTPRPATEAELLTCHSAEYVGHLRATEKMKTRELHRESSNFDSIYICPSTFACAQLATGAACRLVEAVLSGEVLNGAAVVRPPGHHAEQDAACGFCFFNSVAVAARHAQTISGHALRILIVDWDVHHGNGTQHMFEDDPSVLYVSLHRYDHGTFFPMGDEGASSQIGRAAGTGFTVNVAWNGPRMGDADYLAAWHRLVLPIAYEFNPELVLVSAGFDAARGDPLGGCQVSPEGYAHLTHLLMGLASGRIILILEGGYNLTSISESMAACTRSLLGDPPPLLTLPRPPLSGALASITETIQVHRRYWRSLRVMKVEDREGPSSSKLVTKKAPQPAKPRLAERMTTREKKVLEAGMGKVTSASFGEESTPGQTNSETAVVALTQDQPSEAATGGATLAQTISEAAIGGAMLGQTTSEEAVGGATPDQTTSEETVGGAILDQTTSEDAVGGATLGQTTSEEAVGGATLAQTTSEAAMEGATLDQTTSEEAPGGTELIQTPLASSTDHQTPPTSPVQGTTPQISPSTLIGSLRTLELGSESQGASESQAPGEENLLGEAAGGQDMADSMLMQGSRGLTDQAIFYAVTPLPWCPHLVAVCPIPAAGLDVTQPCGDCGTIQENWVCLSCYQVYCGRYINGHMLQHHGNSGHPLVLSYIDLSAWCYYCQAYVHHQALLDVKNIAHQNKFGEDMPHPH
# experimental_setup: Sf9, dose 100.0 nM, time 40.0 min
# value in %; strip the unit string

// Input: O=C(NO)c1ccc(NCc2nc(-c3ccccc3)nn2-c2ccc(C(F)(F)F)cc2)cc1 . Output its inhibition only.
38.9

// Input: CCc1ccc(-n2nc(-c3ccccc3)nc2CNc2ccc(C(=O)NO)cc2)cc1 . Output its inhibition only.
38.3

// Input: Cc1cccc(-n2nc(-c3ccccc3)nc2CNc2ccc(C(=O)NO)cc2)c1 . Output its inhibition only.
66

// Input: CC(C)c1ccc(-n2nc(-c3ccccc3)nc2CNc2ccc(C(=O)NO)cc2)cc1 . Output its inhibition only.
52.6

// Input: O=C(O)c1ccc(NCc2nc(-c3ccccc3)nn2-c2ccccc2)cc1 . Output its inhibition only.
-0.4

// Input: Cc1ccc(-c2nc(CNc3ccc(C(=O)NO)cc3)n(-c3ccccc3)n2)o1 . Output its inhibition only.
60.7

// Input: Nc1ccccc1NC(=O)c1ccc(NCc2nc(-c3ccccc3)nn2-c2ccccc2)cc1 . Output its inhibition only.
5

// Input: O=C(NO)c1ccc(NCc2nc(-c3ccco3)nn2-c2ccccc2)cc1 . Output its inhibition only.
59.9

// Input: CNC(=O)c1ccc(NCc2nc(-c3ccccc3)nn2-c2ccccc2)cc1 . Output its inhibition only.
-3.6

// Input: COc1ccc(-n2nc(-c3ccccc3)nc2CNc2ccc(C(=O)NO)cc2)cc1 . Output its inhibition only.
63.4

// Input: O=C(NO)c1ccc(NCc2nc(-c3ccc(C(F)(F)F)cc3)nn2-c2ccccc2)cc1 . Output its inhibition only.
41.6

// Input: O=C(NO)c1ccc(NCc2nc(-c3ccc(Br)cc3)nn2-c2ccccc2)cc1 . Output its inhibition only.
54.7

// Input: COc1ccc(-c2nc(CNc3ccc(C(=O)NO)cc3)n(-c3ccccc3)n2)cc1 . Output its inhibition only.
77.6

// Input: NNC(=O)c1ccc(NCc2nc(-c3ccccc3)nn2-c2ccccc2)cc1 . Output its inhibition only.
10

// Input: O=C(NO)c1ccc(NCc2nc(-c3sccc3Br)nn2-c2ccccc2)cc1 . Output its inhibition only.
71.1

// Input: O=C(NO)c1ccc(NCc2nc(-c3cccc(Cl)c3)nn2-c2ccccc2)cc1 . Output its inhibition only.
61.2

// Input: Cc1ccccc1-c1nc(CNc2ccc(C(=O)NO)cc2)n(-c2ccccc2)n1 . Output its inhibition only.
53.2

// Input: O=C(NO)c1ccc(NCc2nc(-c3ccccc3)nn2-c2ccc(Cl)cc2)cc1 . Output its inhibition only.
55.4

// Input: O=C(NO)c1ccc(NCc2nc(-c3cccs3)nn2-c2ccc(O)cc2)cc1 . Output its inhibition only.
79.6

// Input: O=C(NO)c1ccc(NCc2nc(-c3ccc(Cl)c(Cl)c3)nn2-c2ccccc2)cc1 . Output its inhibition only.
34.5
